Below, each of the molecules is paired with its reported IC50 value.
Experimental system: GST-hRIPK1 (8-327) (Homo sapiens (Human))
Experiment description: Fluorescent Polarization Binding (FP Binding) assay, RIPK1
Stated conditions: 10 nM GST-hRIPK1 (8-327), 5 nM fluorescent-labeled ligand, RT, 30 min, mean of at least two independent experiments
Measure name: IC50

# Molecule, Measure name, Test value
measured = [
    ("CC(C(=O)N1CCOc2c(C#N)cncc2C1)(C(F)(F)F)C(F)(F)F", "IC50", "0.1 to 1 µM"),
    ("CC(C)(COC(F)(F)F)C(=O)N1CCOc2c(C#N)cncc2C1", "IC50", "0.0001 to 0.1 µM"),
    ("COC1(C(=O)N2Cc3cncc(C#N)c3OC[C@H]2C)CCN(c2ncc(F)cn2)CC1", "IC50", "0.0001 to 0.1 µM"),
    ("N#Cc1cncc2c1OCCN(C(=O)C1(F)CCN(c3ncc4c(n3)COC4)CC1)C2", "IC50", "0.1 to 1 µM"),
    ("CCC(C)(C(=O)N1CCOc2c(C#N)cncc2C1)C(F)F (stereo not drawn)", "IC50", "0.0001 to 0.1 µM"),
    ("N#Cc1cncc2c1OCCN(C(=O)C1(F)CCN(C(=O)c3cccnc3)CC1)C2", "IC50", "> 1 µM"),
    ("CC(C)(C(=O)N1CCOc2cc(C#N)ccc2C1)C(F)F", "IC50", "0.1 to 1 µM"),
    ("N#Cc1cncc2c1OCCN(C(=O)C1(F)CC1)C2", "IC50", "> 1 µM"),
    ("CC(C)(C(=O)N1CCOc2c(F)cncc2C1)C(F)(F)F", "IC50", "0.1 to 1 µM"),
]

---

Entries and their measured IC50 follow.
Experimental system: GST-hRIPK1 (8-327) (Homo sapiens (Human), UniProt Q13546)
Sequence (Q13546 8-327): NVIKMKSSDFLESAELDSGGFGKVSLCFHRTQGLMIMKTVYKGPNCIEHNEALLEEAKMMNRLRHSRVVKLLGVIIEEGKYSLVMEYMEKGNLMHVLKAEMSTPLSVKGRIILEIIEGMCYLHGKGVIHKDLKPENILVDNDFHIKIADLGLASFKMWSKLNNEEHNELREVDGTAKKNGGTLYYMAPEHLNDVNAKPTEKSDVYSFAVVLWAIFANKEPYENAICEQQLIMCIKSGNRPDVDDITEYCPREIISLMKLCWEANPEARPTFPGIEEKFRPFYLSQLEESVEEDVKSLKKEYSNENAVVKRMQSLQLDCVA
Experiment description: Fluorescent Polarization Binding (FP Binding) assay, RIPK1
Stated conditions: 10 nM GST-hRIPK1 (8-327), 5 nM fluorescent-labeled ligand, RT, 30 min, mean of at least two independent experiments

# Compound, IC50
data = [
    ("CC(C)(C(=O)N1CCOc2c(Br)cc(F)cc2C1)C(F)F", "0.1 to 1 µM"),
    ("CC(C)(C(=O)N1CCOc2ccccc2C1)C(F)F", "0.0001 to 0.1 µM"),
    ("CC(CF)(CF)C(=O)N1CCOc2c(C#N)cncc2C1", "0.0001 to 0.1 µM"),
    ("CC(C)(CCF)C(=O)N1CCOc2c(C#N)cncc2C1", "0.1 to 1 µM"),
    ("N#Cc1cncc2c1OCCN(C(=O)C1(F)CCN(c3ccc4nccn4n3)CC1)C2", "0.1 to 1 µM"),
    ("N#Cc1cncc2c1OCCN(C(=O)C1(F)CCN(c3ncc(F)cc3F)CC1)C2", "0.0001 to 0.1 µM"),
    ("CC1(C(=O)N2CCOc3ccccc3C2)CCN(c2ncc(F)cn2)CC1", "0.0001 to 0.1 µM"),
    ("CC(C)(C(=O)N1CCOc2c(C#N)cncc2C1)C1CC1C#N (stereo not drawn)", "> 1 µM"),
    ("CCC1(C(=O)N2CCOc3c(C#N)cncc3C2)CCC1", "0.1 to 1 µM"),
]

---

Experimental system: GST-hRIPK1 (8-327) (Homo sapiens (Human), UniProt Q13546)
Experiment description: Fluorescent Polarization Binding (FP Binding) assay, RIPK1
Stated conditions: GST-hRIPK1 (8-327), mean of at least two independent experiments
IC50 values by entry
Measure name: IC50

# Molecule, Test value
records = [
    ("COc1nc(N2CCC(OC)(C(=O)N3CCOc4ccncc4C3)CC2)ncc1F [Example 235]", "0.1 to 100 nM"),
    ("CC(F)C(C)(C)C(=O)N1CCOc2c(C#N)cncc2C1 (single isomer, unassigned) [Example 272]", "0.1 to 100 nM"),
    ("COC1(C(=O)N2CCOc3c(C#N)cncc3C2)CCN(c2ncc(F)c(C3CC3)n2)CC1 [Example 233]", "0.1 to 100 nM"),
    ("CC(C(=O)N1CCOc2c(C#N)cncc2C1)(C(F)F)C(F)F [Example 268]", "100 to 1000 nM"),
    ("Cc1ncc2c(c1C#N)OCCN(C(=O)C(C)(C)C(F)F)C2 [Example 262]", "100 to 1000 nM"),
    ("CC1(C(=O)N2CCOc3c(C#N)cncc3C2)CCCCO1 (stereo not drawn) [Example 240]", "100 to 1000 nM"),
]

---

Experimental system: GST-hRIPK1 (8-327) (Homo sapiens (Human), UniProt Q13546)
Experiment description: Fluorescent Polarization Binding (FP Binding) assay, RIPK1
Stated conditions: 10 nM GST-hRIPK1 (8-327), 5 nM fluorescent-labeled ligand, RT, 30 min, mean of at least two independent experiments
Measure name: IC50

# Compound, Test value
measured = [
    ("Cc1ocnc1C(=O)N1CCC(F)(C(=O)N2CCOc3c(C#N)cncc3C2)CC1", "0.1 to 1 µM"),
    ("COC1(C(=O)N2CCOc3c(F)cncc3C2)CCN(c2nccc(OCC(F)F)n2)CC1", "0.1 to 1 µM"),
    ("COC1(C(=O)N2CCOc3c(F)cncc3C2)CCN(c2ncccn2)CC1", "0.0001 to 0.1 µM"),
    ("CC(C)(C(=O)N1CCOc2ccncc2C1)C(F)F", "0.1 to 1 µM"),
    ("CCC(C)C(=O)N1Cc2cncc(C#N)c2OC[C@H]1C (stereo partly drawn)", "0.1 to 1 µM"),
    ("N#Cc1cncc2c1OCCN(C(=O)C1(F)CCN(c3cnc(F)c(F)c3)CC1)C2", "> 1 µM"),
    ("CC(C#N)C(C)(C)C(=O)N1CCOc2c(F)cncc2C1 (stereo not drawn)", "> 1 µM"),
    ("N#Cc1cncc2c1OCCN(C(=O)C1CCCN(c3ncc(F)cn3)CC1)C2 (stereo not drawn)", "0.1 to 1 µM"),
    ("Cn1ncc2cnc(N3CCC(F)(C(=O)N4CCOc5c(C#N)cncc5C4)CC3)cc21", "0.1 to 1 µM"),
]

---

Catalogue of compounds with associated pIC50
Experimental system: GST-hRIPK1 (8-327) (Homo sapiens (Human))
Experiment description: Fluorescent Polarization Binding (FP Binding) assay, RIPK1
Stated conditions: GST-hRIPK1 (8-327), mean of at least two independent experiments
pIC50: −log10 of the molar value.

# Compound, pIC50
rows = [
    ("N#Cc1cncc2c1OCCN(C(=O)C1CCN(c3ncnc4ccnn34)CC1(F)F)C2 (centres unmarked)", "6.00 to 7.00"),
    ("COC1CN(c2ncc(F)cn2)CCC1C(=O)N1CCOc2c(C#N)cncc2C1 (centres unmarked)", "6.00 to 7.00"),
    ("N#Cc1cncc2c1OCCN(C(=O)C1CCN(c3ncc(F)cn3)CC1O)C2 (centres unmarked)", "6.00 to 7.00"),
    ("N#Cc1cncc2c1OCCN(C(=O)C1CCN(c3ccnc4c(F)cnn34)CC1F)C2 (single isomer, unassigned) [Example 303]", "6.00 to 7.00"),
    ("CC(C)(C(=O)N1CCOc2c(C#N)cncc2C1)C1CC(Cl)C1 (centres unmarked)", "7.00 to 10.00"),
    ("CCC(C)(OC)C(=O)N1CCOc2c(C#N)cncc2C1 (single isomer, unassigned) [Example 282]", "6.00 to 7.00"),
    ("N#Cc1cncc2c1OCCN(C(=O)C1(F)CCN(c3ncc(F)n4ncnc34)CC1)C2", "7.00 to 10.00"),
    ("CC(C)(C(=O)N1CCOc2c(C#N)cncc2C1)C1CC1COC(F)(F)F (centres unmarked)", "< 6.00"),
]

---

Experimental system: GST-hRIPK1 (8-327) (Homo sapiens (Human))
Experiment description: Fluorescent Polarization Binding (FP Binding) assay, RIPK1
Stated conditions: 10 nM GST-hRIPK1 (8-327), 5 nM fluorescent-labeled ligand, RT, 30 min, mean of at least two independent experiments
Measure name: IC50

# Compound, Test value
rows = [
    ("COc1cnc(Cl)nc1N1CCC(F)(C(=O)N2CCOc3c(C#N)cncc3C2)CC1", "> 1000 nM"),
    ("CC(C)(CF)C(=O)N1CCOc2c(C#N)cncc2C1", "0.1 to 100 nM"),
    ("N#Cc1cncc2c1OCCN(C(=O)C1CCN(c3nccc(OCC(F)F)n3)CC1)C2", "100 to 1000 nM"),
    ("COc1nc(N2CCC(F)(C(=O)N3CCOc4c(C#N)cncc4C3)CC2)nc2ccccc12", "100 to 1000 nM"),
    ("N#Cc1cncc2c1OCCN(C(=O)C1(F)CCN(c3ncc(F)c(OCC(F)F)n3)CC1)C2", "0.1 to 100 nM"),
    ("CC1CC(C(=O)N2CCOc3c(C#N)cncc3C2)CCN1c1ncc(F)cn1 (stereo not shown)", "100 to 1000 nM"),
    ("CC(C)(C)C(=O)N1CCOc2c(C#N)cncc2C1", "0.1 to 100 nM"),
    ("CC1(C(=O)N2CCOc3c(C#N)cncc3C2)CCOC1 (stereo not shown)", "100 to 1000 nM"),
    ("N#Cc1cncc2c1OCCN(C(=O)C1(F)CCN(c3ncncc3F)CC1)C2", "100 to 1000 nM"),
    ("CSC(C)(C)C(=O)N1CCOc2c(C#N)cncc2C1", "0.1 to 100 nM"),
    ("N#Cc1cncc2c1OCCN(C(=O)C1(F)CCN(c3ccc(F)cn3)CC1)C2", "0.1 to 100 nM"),
    ("CC1CN(c2ncc(F)cn2)CCC1C(=O)N1CCOc2c(C#N)cncc2C1 (stereo not shown)", "0.1 to 100 nM"),
    ("CC(C(=O)N1CCOc2c(C#N)cncc2C1)C1CC1 (stereo not shown)", "100 to 1000 nM"),
    ("C[C@@H]1COc2c(C#N)cncc2CN1C(=O)C(C)(C)C", "0.1 to 100 nM"),
    ("N#Cc1cncc2c1OCCN(C(=O)C1(F)CCN(c3cccnn3)CC1)C2", "100 to 1000 nM"),
    ("COc1nc(N2CCC(OC)(C(=O)N3CCOc4c(C#N)cncc4C3)CC2)ncc1F", "0.1 to 100 nM"),
    ("CCC(C)(OC)C(=O)N1CCOc2c(C#N)cncc2C1 (stereo not shown)", "0.1 to 100 nM"),
    ("O=C(C1CCN(c2ncc(F)cn2)CC1)N1Cc2ccccc2CCO1", "100 to 1000 nM"),
    ("COc1nc(N2CCC(OC)(C(=O)N3CCOc4c(F)cncc4C3)CC2)ncc1F", "0.1 to 100 nM"),
]
